Each recorded value in this set is attributed to PubChem BioAssay.

test: inhibitors of CMV-promoter luciferase reporter, dose response, counter-screen for Pax8 inhibitor project, cell-based, HEK293, luminescence, dry powder (AID 743020); settings: SteadyGlo luminescence, 24 h; series mostly up to 35 µM;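 note: HEK293 cells stably expressing the CMV luciferase reporter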
Measured potencies and affinities stand elsewhere. Inconclusive results are not listed. Active and inactive are the calls of the source.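 Rule for the calls: active = signal-lowering compounds whose fitted half-maximal concentration is at or below twice the top tested dose in every run; inconclusive = runs disagree, flat 30 to 70% inhibition, or poor curve fit; inactive = the rest.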
Measured endpoint: activity change, negative = inhibition

Worked examples, 5 compounds total:
{"columns": ["Compound", "Endpoint value"],
 "data": [
  ["O=C(Nc1ccc(C(F)(F)F)cc1)Nc1ccc2c(c1)[C@H]1C[C@H](CC(=O)N3CCc4ccccc4C3)O[C@H](CO)[C@H]1O2", "inactive"],
  ["C/C(=N\\NC(=O)c1n[nH]c2c1CCC2)c1cccs1", "inactive"],
  ["COc1cccc(S(=O)(=O)N2CC[C@@H]3[C@@H](CO)Nc4ccc(-c5ccccc5OC)cc4[C@@H]32)c1", "inactive"],
  ["COc1ccc(N(Cc2cc3cc(OC)ccc3[nH]c2=O)S(=O)(=O)c2ccc(NC(C)=O)cc2)cc1", "inactive"],
  ["CO[C@@H]1CN(C)C(=O)c2cc(NC(=O)c3ccccc3F)ccc2OC[C@@H](C)N(CC2CC2)C[C@@H]1C", "inactive"]
]}

// each compound listed below needs its activity change, negative = inhibition
1. Cc1ccc(S(=O)(=O)Nc2ccc3c(c2)C(=O)N([C@H](C)CO)C[C@H](C)[C@@H](CN(C)S(=O)(=O)c2ccc(F)cc2)OCCCC[C@H](C)O3)cc1
2. C[C@@H]1CN([C@H](C)CO)S(=O)(=O)c2ccc(C#Cc3ccncc3)cc2O[C@H]1CN(C)C(=O)Nc1ccc2c(c1)OCO2

Solution:
1: inactive; 2: inactive

// each compound listed below needs its activity change, negative = inhibition
1. CC(=O)N/C(=C\c1ccccc1)C(=O)OCC(=O)NC1CCCC1
2. Cc1ccccc1S(=O)(=O)N1CC[C@@H]2[C@H](CO)Nc3ccc(-c4cccc(F)c4)cc3[C@@H]21
3. C=C1C(=O)O[C@@H]2[C@H]1CC[C@H](C)[C@]1(O)CCC(=O)[C@@]21C
4. C[C@H](CO)N1C[C@H](C)[C@@H](CN(C)Cc2ccc(Oc3ccccc3)cc2)Oc2ccc(NS(=O)(=O)c3ccc(F)cc3)cc2CC1=O

Solution:
["inactive", "inactive", "inactive", "inactive"]

// each compound listed below needs its activity change, negative = inhibition
1. CCN(CC)c1ccc(C(NC(=O)C(C)C)c2ccc3cccnc3c2O)cc1 (stereo unspecified)
2. Cc1ccc(S(=O)(=O)N(C)C[C@H]2Oc3ccc(NC(=O)Nc4ccc(C(F)(F)F)cc4)cc3CC(=O)N([C@@H](C)CO)C[C@H]2C)cc1

Solution:
["inactive", "inactive"]

---

test: osmotic lysis modulators in infected erythrocytes, primary screen, PSAC antagonist project, cell-based, P. falciparum Indochina, OD700, 3 h (AID 1156); details: higher = more signal, called active from +8 up or from −8 down
Everything with z-score lower than 0.7 is NO; everything else, including exactly 0.7, is YES.

Use these answered entries as a reference point.
{"columns": ["Compound", "Label class"],
 "data": [
  ["COc1ccc([Si](C)(C)[C@@H]2[C@@H](CC(=O)N3CCC[C@H]3CO)O[C@]3(C(=O)N(Cc4ccc(N5CCC5=O)cc4)c4ccccc43)[C@H]2C)cc1", "NO"],
  ["CC1CC/C=C\\[C@H]2OC34C=CCN(C(C)C)C(=O)[C@H]3N(C(CO)C(C)C)C(=O)[C@@H]4C2C(=O)O1 (stereo partly drawn)", "NO"],
  ["C[C@@H](OCc1ccccc1)C1NC(=O)[C@@]23C(=O)N[C@@H](Cc4ccccc4)C2[C@H](C)[C@@]2(C)O[C@H]2C3/C=C/C/C=C\\CNC(=O)[C@@H]2CCCN2C1=O (stereo partly drawn)", "YES"],
  ["CC(C)C(CO)N1C(=O)[C@@H]2[C@H]3C(=O)OCC=C[C@H]3OC23C=CCN(Cc2ccccc2)C(=O)[C@@H]13 (stereo partly drawn)", "YES"],
  ["O=C1c2ccccc2C(=O)c2cc([C@H]3Oc4ccccc4S(=O)(=O)N4CCC[C@@H]34)ccc21", "NO"],
  ["CN1C=C(C(=O)OCCS(C)(=O)=O)C(C(=O)OCCS(C)(=O)=O)=CC(CCCO)=CC1c1cccs1 (stereo not drawn)", "NO"]
]}

Problem: Would you say `C=CC[C@]1(C(=O)N2CCCCC2)COC(c2ccc(OCCCO)cc2)=N1` shows z-score at minimum 0.7?
Solution: YES
